Assay: Compound was evaluated for toxic dose on locomotor assessed by rotarod test in mice
Type: ADME
Details: mouse, in vivo
Cut-off 20 mg/kg on TD50: below means rule met, at or above means rule not met.

Illustrative cases are given below, each with its answer.
Nc1cccc(C2=NNC(=O)Cc3cc4c(cc32)OCO4)c1 | rule not met
COc1cc2c(cc1OC)C(c1ccccc1)=NNC(=O)C2 | rule not met
COc1cc2c(cc1OC)C(c1cccc(N)c1)=NNC(=O)C2 | rule met

Just wondering, is TD50 of COc1cc2c(cc1OC)C(c1ccc(N)cc1)=NNC(=O)C2 below 20 mg/kg?
rule met

Just wondering, is TD50 of O=C1Cc2cc3c(cc2C(c2ccc(O)cc2)=NN1)OCO3 below 20 mg/kg?
rule not met

Just wondering, is TD50 of CC1=NN=C(c2ccc(N)cc2)c2cc3c(cc2C1)OCO3 below 20 mg/kg?
rule not met
